targetEntity: Voltage-gated inwardly rectifying potassium channel KCNH2 (Homo sapiens) (UniProt Q12809)
Sequence (Q12809 whole entry, looked up): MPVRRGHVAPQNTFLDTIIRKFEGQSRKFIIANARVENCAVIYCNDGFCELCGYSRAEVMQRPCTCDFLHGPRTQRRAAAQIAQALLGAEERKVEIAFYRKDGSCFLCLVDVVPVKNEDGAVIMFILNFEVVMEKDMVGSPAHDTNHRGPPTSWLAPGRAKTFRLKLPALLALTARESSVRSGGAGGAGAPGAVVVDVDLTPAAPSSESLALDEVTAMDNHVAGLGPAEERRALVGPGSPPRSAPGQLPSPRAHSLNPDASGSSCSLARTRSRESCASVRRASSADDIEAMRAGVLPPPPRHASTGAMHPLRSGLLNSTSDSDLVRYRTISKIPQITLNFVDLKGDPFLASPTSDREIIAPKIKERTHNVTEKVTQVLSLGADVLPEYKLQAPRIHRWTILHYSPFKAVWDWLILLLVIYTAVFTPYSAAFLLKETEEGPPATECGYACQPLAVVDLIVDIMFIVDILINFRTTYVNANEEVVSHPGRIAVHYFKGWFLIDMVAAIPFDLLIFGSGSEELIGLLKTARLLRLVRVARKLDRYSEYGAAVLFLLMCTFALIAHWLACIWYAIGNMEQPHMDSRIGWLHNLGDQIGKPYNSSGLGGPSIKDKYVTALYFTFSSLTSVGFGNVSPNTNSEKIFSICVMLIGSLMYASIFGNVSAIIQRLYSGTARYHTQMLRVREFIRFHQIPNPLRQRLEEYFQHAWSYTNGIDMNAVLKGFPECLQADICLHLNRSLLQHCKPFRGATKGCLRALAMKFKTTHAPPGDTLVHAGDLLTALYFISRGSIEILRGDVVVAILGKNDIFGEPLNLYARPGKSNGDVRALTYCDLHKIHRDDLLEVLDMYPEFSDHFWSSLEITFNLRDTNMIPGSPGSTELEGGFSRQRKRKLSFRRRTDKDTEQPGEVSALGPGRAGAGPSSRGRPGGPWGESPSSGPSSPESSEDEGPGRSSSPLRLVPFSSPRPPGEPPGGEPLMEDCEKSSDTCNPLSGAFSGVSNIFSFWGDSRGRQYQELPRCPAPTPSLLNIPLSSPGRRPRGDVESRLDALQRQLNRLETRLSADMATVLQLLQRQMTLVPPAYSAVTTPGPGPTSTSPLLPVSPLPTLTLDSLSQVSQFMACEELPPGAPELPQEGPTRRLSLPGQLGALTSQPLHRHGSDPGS
protocolSummary: qHTS for Inhibitors of KCHN2 3.1: Wildtype qHTS; further: on the % scale 0 is the no-effect control and ±100 the full control effect
runParameters: U2OS, BacMam KCNH2, thallium flux FluxOr; at 1.84 µM; stronger effect = lower value
Description: Many antipsychotic drugs that inhibit the neurotransmitter dopamine also bind to hERG1 channel which might help explain their antipsychotic activity but also produces cardiac side effects. […] U2OS cells were resuspended in cell media containing 10% fetal calf serum (FCS) at a concentration of 2 million cells / mL. […] A stimulation buffer was added to the plate and the second kinetic read (2 min) was obtained. […]
The whole screen tested about 340,000 compounds, of which about 1,300 (0.38%) were called active. This excerpt belongs to a sample that is enriched for actives.
quantityName: activity change (%)

compound	unitDescriptor	numericResult
O=C1OCCC1=COCCCCOC=C1CCOC1=O	%	0.218
CSc1sc(C(=O)NNC(=O)c2ccc(Cl)cc2)c2c1C=CCC2	%	-2.11
CN(CC(=O)Nc1ccc(F)cc1)C(=O)c1ccc(-c2ccc(Cl)cc2)o1	%	-18.6
COc1cccc(NC(=O)N2CCC(NC(=O)C(Cc3cccc(C)c3)NC(C)=O)CC2)c1 (stereo not given)	%	-205
Cn1c(CCN2CCN(c3ccccn3)CC2)nc2cc(NS(=O)(=O)c3ccc(F)cc3)ccc21	%	-20.6

* * *

We begin with a simple list: items and their reported activity change.
targetEntity: Voltage-gated inwardly rectifying potassium channel KCNH2 (Homo sapiens)
protocolSummary: qHTS for Inhibitors of KCHN2 3.1: Wildtype qHTS; further: on the % scale 0 is the no-effect control and ±100 the full control effect
runParameters: U2OS, BacMam KCNH2, thallium flux FluxOr; at 1.84 µM; stronger effect = lower value
Out of some 340,000 compounds screened, about 1,300 (0.38%) were called active. The entries come from a sample that favours actives as a whole.

molecule	targetEntity	activity change / %
COc1cccc(OC)c1C(=O)Nc1c(C(=O)N2CCN(c3ccccn3)CC2)oc2ccccc12	Voltage-gated inwardly rectifying potassium channel KCNH2 (Homo sapiens)	3.21
Cc1ccc2sc(N(CCN(C)C)C(=O)/C=C/c3cccs3)nc2c1C	Voltage-gated inwardly rectifying potassium channel KCNH2 (Homo sapiens)	-101
COc1ccc(CC(=O)Nc2c(C(N)=O)oc3ccccc23)cc1	Voltage-gated inwardly rectifying potassium channel KCNH2 (Homo sapiens)	26.6
N#Cc1ccc(OCC(=O)Nc2nc(-c3ccccn3)cs2)cc1	Voltage-gated inwardly rectifying potassium channel KCNH2 (Homo sapiens)	19.3
CCC(c1nnnn1Cc1ccco1)N(CCc1ccccc1)Cc1cc2cccc(C)c2[nH]c1=O (stereo not given)	Voltage-gated inwardly rectifying potassium channel KCNH2 (Homo sapiens)	-261
CCOCCCN(C)C1CCN(C(=O)c2oc3ccccc3c2NC(=O)Cc2cccc([N+](=O)[O-])c2)CC1	Voltage-gated inwardly rectifying potassium channel KCNH2 (Homo sapiens)	-97.4
O=C(Nc1cccc(C(=O)O)c1)/C(=C\c1ccccc1)NC(=O)c1ccc(Br)o1	Voltage-gated inwardly rectifying potassium channel KCNH2 (Homo sapiens)	9.44
O=C(NCCOc1ccccc1)N1[C@H]2CC[C@@H]1C=C(c1ccc(F)cc1OCc1ccccc1)C2	Voltage-gated inwardly rectifying potassium channel KCNH2 (Homo sapiens)	2.38
COCC(=O)Nc1c(C(=O)N2CCCC2)oc2ccccc12	Voltage-gated inwardly rectifying potassium channel KCNH2 (Homo sapiens)	-3.28
CCC(c1nnnn1C1CCCC1)N(Cc1cccs1)Cc1cc2cccc(C)c2[nH]c1=O (stereo not given)	Voltage-gated inwardly rectifying potassium channel KCNH2 (Homo sapiens)	-3.98

* * *

targetEntity: Voltage-gated inwardly rectifying potassium channel KCNH2 (Homo sapiens) (UniProt Q12809)
protocolSummary: qHTS for Inhibitors of KCHN2 3.1: Wildtype qHTS; further: on the % scale 0 is the no-effect control and ±100 the full control effect
runParameters: U2OS, BacMam KCNH2, thallium flux FluxOr; at 1.84 µM; stronger effect = lower value
Hit rate of the full screen: of about 340,000 compounds, about 1,300 (0.38%) were called active. The full list was thinned out, with actives kept by preference.
We begin with a simple list: items and their reported activity change.
quantityName: activity change

compound	quantityName	result
O=C(COc1ccccc1F)Nc1nc(-c2ccccn2)cs1	activity change	-8.89% (inactive)
O=S(=O)(c1cccc(C(F)(F)F)c1)N1c2ccccc2-n2cccc2C1c1cccnc1 (stereo unspecified)	activity change	-12.2% (inactive)
CCOC(=O)C1(CCOc2ccccc2)CCN(Cc2ccc(C#CCCO)cc2)CC1	activity change	19.1% (inactive)
Cc1cc(NC(=O)[C@H](C)NC(=O)c2ccco2)ccc1Br	activity change	-4.82% (inactive)
CCOC(=O)C1(CCOc2ccccc2)CCN(Cc2cc(OC)cc(OC)c2)CC1	activity change	-109% (active)
O=C(CCN1C(=O)c2ccccc2C1=O)Nc1cccc(F)c1	activity change	5.88% (inactive)
CC(NC(=O)c1ccco1)C(=O)Nc1nc(-c2ccccn2)cs1 (stereo unspecified)	activity change	-212% (active)
O=C(CCc1ccccc1Cl)Nc1ccc(S(=O)(=O)Nc2nccs2)cc1	activity change	-79.2% (active)
COCCn1c(SCC(=O)Nc2ccc(F)cc2F)nc2c(c1=O)SCC2	activity change	-2.69% (inactive)
O=C(CN1C(=O)NC2(CCc3ccccc32)C1=O)NC1CCCCC1 (stereo unspecified)	activity change	12.5% (inactive)
CC1(C)CC(=O)C=C(c2ccc(COC(=O)c3cc(F)cc(F)c3)cc2)C1=O	activity change	-3.02% (inactive)
Cc1ccc(NC(=O)COC(=O)CN2CCSC2=O)cc1F	activity change	-2.67% (inactive)
COc1cc(C)c(CN2CCN(C(=O)CCC(=O)c3ccc(C)s3)CC2)cc1OC	activity change	1.74% (inactive)
COc1ccc(C(CNC(=O)CSc2ccccc2)N2CCOCC2)cc1 (stereo unspecified)	activity change	-6.03% (inactive)
CCOc1ccc(S(=O)(=O)NCCC(=O)NNC(=O)c2ccc(F)cc2)cc1	activity change	-9.08% (inactive)
N#CC1(Nc2ccc3c4c(cccc24)CC3)CCCCC1	activity change	-12.6% (inactive)
Nc1cc(C(=O)N2CCN(c3ccccc3Cl)CC2)ccc1N1CC2CC(C1)c1cccc(=O)n1C2 (stereo unspecified)	activity change	6.37% (inactive)
O=S(=O)([N-]c1nc2ccccc2nc1-[n+]1ccc(Cc2ccccc2)cc1)c1ccc(Br)s1	activity change	8.23% (inactive)
Cc1ccc(OCCC(=O)Nc2ccc(S(=O)(=O)Nc3nccs3)cc2)cc1	activity change	4.09% (inactive)
Cc1cc(C)c[n+](-c2nc3ccccc3nc2[N-]S(=O)(=O)c2cccs2)c1	activity change	-111% (active)
Cc1ccc(S(=O)(=O)N2C[C@]3(O)C[C@@H]4C(=O)N(c5ccccc5)C(=O)[C@@H]4C[C@]3(OC(=O)NC3CC3)C2)cc1	activity change	-7.72% (inactive)

* * *

targetEntity: Voltage-gated inwardly rectifying potassium channel KCNH2 (Homo sapiens)
protocolSummary: qHTS for Inhibitors of KCHN2 3.1: Wildtype qHTS; further: on the % scale 0 is the no-effect control and ±100 the full control effect
runParameters: U2OS, BacMam KCNH2, thallium flux FluxOr; at 1.84 µM; stronger effect = lower value
Screen size: about 340,000 compounds; about 1,300 (0.38%) were called active. The list comes from a sample in which actives are over-represented; it also holds close analogues and randomly drawn compounds.

compound	targetEntity	unitDescriptor	activity change
Cc1cc(=O)c2ccc(NC(=O)c3ccccc3)cc2[nH]1	Voltage-gated inwardly rectifying potassium channel KCNH2 (Homo sapiens)	%	13.6
CC1(C)Cc2cccc(OCC(=O)Nc3nccs3)c2O1	Voltage-gated inwardly rectifying potassium channel KCNH2 (Homo sapiens)	%	-0.616
N#Cc1ccc(CN2CCN(CC(=O)Nc3ccccc3C(=O)NC3CC3)CC2)cc1	Voltage-gated inwardly rectifying potassium channel KCNH2 (Homo sapiens)	%	-89.2
O=C(CN1CCCCC1)Nc1ccccc1C(=O)NC1CC1	Voltage-gated inwardly rectifying potassium channel KCNH2 (Homo sapiens)	%	4.09
COc1cccc(CC2(CO)CCCN(CC3=Cc4cc(OC)ccc4OC3)C2)c1 (stereo unspecified)	Voltage-gated inwardly rectifying potassium channel KCNH2 (Homo sapiens)	%	8.29
CC(OC(=O)c1cccnc1Cl)C(=O)NC1CCCCC1 (stereo unspecified)	Voltage-gated inwardly rectifying potassium channel KCNH2 (Homo sapiens)	%	10.4
CC1(C)Cc2cccc(OCC(=O)N3CCN(c4ccc([N+](=O)[O-])cc4)CC3)c2O1	Voltage-gated inwardly rectifying potassium channel KCNH2 (Homo sapiens)	%	-90.2
O=C1CN(C(=O)COC(=O)c2cnc(Cl)c(Cl)c2)c2ccccc2N1	Voltage-gated inwardly rectifying potassium channel KCNH2 (Homo sapiens)	%	8.42
CC1(C)Cc2cccc(OCC(N)=O)c2O1	Voltage-gated inwardly rectifying potassium channel KCNH2 (Homo sapiens)	%	-15.1
Cc1ccc(OCC(=O)Nc2ccccc2C(=O)NC2CC2)cc1	Voltage-gated inwardly rectifying potassium channel KCNH2 (Homo sapiens)	%	36.5
Cc1ccccc1SCC(=O)OCC(=O)N1CC(=O)Nc2ccccc21	Voltage-gated inwardly rectifying potassium channel KCNH2 (Homo sapiens)	%	7.23
